experimentalTarget: human histamine H3 receptor (Homo sapiens)
Construct: endogenous in cells; integrated RAGE vector pFG8-HH3 supplies exon 1, the cell's own gene supplies the other exons
protocolNotes: Competition radioligand binding assay with [125I]iodoproxyfan on membranes of RAGE-H3 (HT1080-Gqαi5) cells expressing human H3 receptor
particulars: ~0.15 nM [125I]iodoproxyfan, 1.5 hrs at room temperature, head does not name the quantity (apparent Ki by Cheng-Prussof)
Answer each item with its documented Ki.

CC(C)c1cc(C(C)C)n(-c2ccc(OCCCN3CCCC3)cc2)n1; < 10 nM
Cc1nn(-c2ccc(OCCCN3CCCC3)cc2)c(C)c1-c1ccccc1; < 10 nM
C[C@@H]1CCCN1CCCOc1ccc(-n2nc(C(F)(F)F)cc2-c2ccccc2)cc1; < 100 nM
FC(F)(F)c1cc(-c2ccccc2)n(-c2ccc(OCCCN3CCOCC3)cc2)n1; < 1000 nM

Give Ki for the following molecule: Cc1cc(C(C)(C)C)n(-c2ccc(OCCCN3CCCCC3)cc2)n1
< 100 nM

----------
experimentalTarget: human histamine H3 receptor (Homo sapiens)
Construct: endogenous in cells; integrated RAGE vector pFG8-HH3 supplies exon 1, the cell's own gene supplies the other exons
protocolNotes: Competition radioligand binding assay with [125I]iodoproxyfan on membranes of RAGE-H3 (HT1080-Gqαi5) cells expressing human H3 receptor
particulars: ~0.15 nM [125I]iodoproxyfan, 1.5 hrs at room temperature, head does not name the quantity (apparent Ki by Cheng-Prussof)
Method: Representative compounds of the present invention that were prepared by the procedures of Examples 1-83 were evaluated in binding assays against cells expressing human H3 receptor by the following procedure. […] RAGE-H3 cells (10^9) were washed twice with cold PBS, scraped off the plates, and centrifuged at 1000×g for 5 minutes. […] Protein concentration was determined by the Bradford method (Bio-Rad Laboratories, CA). […]
pKi: −log10 of the molar value.
endpointLabel: pKi

c1ccc2c(c1)cnn2-c1ccc(OCCCN2CCCC2)cc1; > 8.00
Cc1cc(C(C)(C)C)nn1-c1ccc(OCCCN2CCCCC2)cc1; > 8.00
Cc1cc(CC(C)C)n(-c2ccc(OCCCN3CCCCC3)cc2)n1; > 7.00

Would you mind giving pKi for every compound in the list below?
1. FC(F)(F)c1cc(-c2ccccc2)n(-c2ccc(OCCCN3CCCCC3)cc2)n1
2. Cc1cc(C(=O)NC2CCCCC2)n(-c2ccc(OCCCN3CCCCC3)cc2)n1
3. Cc1c2c(nn1-c1ccc(OCCCN3CCCC3)cc1)[C@H]1CCCC[C@@H]1CC2 (relative stereo)
4. CC(C)(C)c1cc(-c2ccccc2)n(-c2ccc(OCCCN3CCCC3)cc2)n1

1: > 7.00; 2: > 9.00; 3: > 8.00; 4: > 8.00

Hi! Can you tell me pKi for each of these compounds?
1. Cc1cc(C(C)(C)C)nn1-c1ccc(OCCCN2CCCC2)cc1
2. Cc1c2c(nn1-c1ccc(OCCCN3CCCCC3)cc1)CCC2

> 8.00
> 8.00

----------
experimentalTarget: human histamine H3 receptor (Homo sapiens, UniProt Q9Y5N1)
Construct: endogenous in cells; integrated RAGE vector pFG8-HH3 supplies exon 1, the cell's own gene supplies the other exons
Sequence (Q9Y5N1 whole entry): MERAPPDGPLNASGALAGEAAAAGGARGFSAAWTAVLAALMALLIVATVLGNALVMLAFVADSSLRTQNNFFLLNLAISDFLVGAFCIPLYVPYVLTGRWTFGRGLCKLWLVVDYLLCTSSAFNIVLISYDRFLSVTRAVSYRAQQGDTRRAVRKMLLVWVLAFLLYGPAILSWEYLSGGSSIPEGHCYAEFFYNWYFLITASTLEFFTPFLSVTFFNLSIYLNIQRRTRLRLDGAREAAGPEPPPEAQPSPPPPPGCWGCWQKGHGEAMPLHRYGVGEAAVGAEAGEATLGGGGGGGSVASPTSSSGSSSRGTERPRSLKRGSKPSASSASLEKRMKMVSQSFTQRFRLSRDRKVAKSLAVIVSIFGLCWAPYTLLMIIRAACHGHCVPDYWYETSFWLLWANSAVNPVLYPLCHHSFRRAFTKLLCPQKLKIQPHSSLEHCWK
protocolNotes: Competition radioligand binding assay with [125I]iodoproxyfan on membranes of RAGE-H3 (HT1080-Gqαi5) cells expressing human H3 receptor
particulars: ~0.15 nM [125I]iodoproxyfan, 1.5 hrs at room temperature, head does not name the quantity (apparent Ki by Cheng-Prussof)
endpointLabel: Ki

Cc1cc(C(=O)NCC2CCCCC2)n(-c2ccc(OCCCN3CCCC3)cc2)n1; < 1 nM
CCc1cc(CC)n(-c2ccc(OCCCN3CCCC3)cc2)n1; < 10 nM
c1ccc2nn(-c3ccc(OCCCN4CCCC4)cc3)cc2c1; < 100 nM

Then there is this molecule:
In one line, give reported Ki of the entry Cc1cc(CO)n(-c2ccc(OCCCN3CCCC3)cc2)n1 .
< 10 nM

----------
Provide the reported pKi of each item.
experimentalTarget: human histamine H3 receptor (Homo sapiens, UniProt Q9Y5N1)
Construct: endogenous in cells; integrated RAGE vector pFG8-HH3 supplies exon 1, the cell's own gene supplies the other exons
protocolNotes: Competition radioligand binding assay with [125I]iodoproxyfan on membranes of RAGE-H3 (HT1080-Gqαi5) cells expressing human H3 receptor
particulars: ~0.15 nM [125I]iodoproxyfan, 1.5 hrs at room temperature, head does not name the quantity (apparent Ki by Cheng-Prussof)
pKi: −log10 of the molar value.

CC1CCCN1CCCOc1ccc(-n2nc(C(F)(F)F)c3oc4ccccc4c32)cc1 (stereo not drawn); > 7.00

Give pKi for each listed item.
1. CCc1cc(CC)n(-c2ccc(OCCCN3CCCCC3)cc2)n1
2. Cc1cc(C(=O)NC2CCCCC2)n(-c2ccc(OC3CCN(C(C)C)CC3)cc2)n1
3. Cc1nn(-c2ccc(OCCCN3CCCC3)cc2)c2c1CCCC2
4. Cc1cc(CC(C)C)nn1-c1ccc(OCCCN2CCCCC2)cc1
5. Cc1cc(C(=O)NC2CCCCC2)n(-c2ccc(OCCC3CCCN3C)cc2)n1 (stereo not drawn)

> 8.00
> 8.00
> 8.00
> 8.00
> 6.00

Each molecule below has a recorded value; state its pKi.
1. Cc1cc(C(=O)NC2CCCCC2)nn1-c1ccc(OCCCN2CCCC2)cc1
2. Cc1cc(CC(C)C)nn1-c1ccc(OCCCN2CCCC2)cc1
3. CCc1c(C)nn(-c2ccc(OCCCN3CCCC3)cc2)c1C

1: > 8.00; 2: > 8.00; 3: > 8.00

----------
experimentalTarget: human histamine H3 receptor (Homo sapiens, UniProt Q9Y5N1)
Construct: endogenous in cells; integrated RAGE vector pFG8-HH3 supplies exon 1, the cell's own gene supplies the other exons
protocolNotes: Competition radioligand binding assay with [125I]iodoproxyfan on membranes of RAGE-H3 (HT1080-Gqαi5) cells expressing human H3 receptor
particulars: ~0.15 nM [125I]iodoproxyfan, 1.5 hrs at room temperature, head does not name the quantity (apparent Ki by Cheng-Prussof)
endpointLabel: Ki

// solved cases for Ki follow
CCc1cc(CC)n(-c2ccc(OCCCN3CCOCC3)cc2)n1 [Example 23]; < 1000 nM
Cc1cc(OCCCN2CCCCC2)ccc1-n1nc(C(C)C)cc1C(C)C [Example 62]; < 10 nM

I have 8 compounds here; please give me Ki for each one.
1. FC(F)(F)c1cc(-c2cc3ccccc3o2)n(-c2ccc(OCCCN3CCCC3)cc2)n1 [Example 63]
2. COc1ccc2c(c1)-c1c(c(C)nn1-c1ccc(OCCCN3CCCC3)cc1)CC2 [Example 7]
3. Cc1cc(-c2ccccc2)n(-c2ccc(OCCCN3CCCC3)cc2)n1 [Example 41]
4. Cc1cc(CC(C)C)n(-c2ccc(OCCCN3CCCC3)cc2)n1 [Example 28]
5. Cc1cc(OCCCN2CCCC2)ccc1-n1nc(C(C)C)cc1C(C)C [Example 61]
6. CN(C)C1CCN(CCCOc2ccc(-n3nc(C(F)(F)F)c4oc5ccccc5c43)cc2)C1 (stereo not drawn) [Example 68]
7. Cc1nn(-c2ccc(OCCCN3CCC[C@H]3C)cc2)c2c1CCc1ccccc1-2 [Example 2]
8. Cc1cc(C(=O)NC2CCCCC2)n(-c2ccc(OCC3CCCN4CCCCC34)cc2)n1 (stereo not drawn) [Example 82]

< 100 nM
< 100 nM
< 10 nM
< 100 nM
< 10 nM
< 1000 nM
< 10 nM
> 10000 nM

Take each entry in turn and give its Ki.
1. CN(C)C1CCN(CCCOc2ccc(-n3nc(C(F)(F)F)cc3-c3ccccc3)cc2)C1 (stereo not drawn) [Example 52]
2. Cc1cc(C(=O)N2CCCC2)n(-c2ccc(OCCCN3CCCC3)cc2)n1 [Example 78]
3. FC(F)(F)c1cc(-c2ccccc2)n(-c2ccc(OCCCN3CCCC3)cc2)n1 [Example 50]
4. Cc1nn(-c2ccc(OCCCN3CCCC3)cc2)c2c1sc1ccccc12 [Example 64]

< 10000 nM
< 10 nM
< 10 nM
< 10 nM

Give measured Ki for every item shown.
1. Cc1nn(-c2ccc(OCCCN3CCOCC3)cc2)c2c1CCc1ccccc1-2 [Example 3]
2. Cc1nn(-c2ccc(OCCCN3CCCC3)cc2)c2c1CC[C@@H]1CCCC[C@@H]21 (relative stereo) [Example 5]
3. Cc1nn(-c2ccc(OCCCN3CCCC3)cc2)c(C)c1C [Example 36]
4. Cc1cc(C(=O)NC2CCCCC2)n(-c2ccc(OCCCN3CCC[C@H]3C)cc2)n1 [Example 74]

< 10 nM
< 1 nM
< 10 nM
< 1 nM

----------
experimentalTarget: human histamine H3 receptor (Homo sapiens, UniProt Q9Y5N1)
Construct: endogenous in cells; integrated RAGE vector pFG8-HH3 supplies exon 1, the cell's own gene supplies the other exons
protocolNotes: Competition radioligand binding assay with [125I]iodoproxyfan on membranes of RAGE-H3 (HT1080-Gqαi5) cells expressing human H3 receptor
particulars: ~0.15 nM [125I]iodoproxyfan, 1.5 hrs at room temperature, head does not name the quantity (apparent Ki by Cheng-Prussof)
Task for the reader: assign each of the following compounds its reported Ki.

These recorded examples may help you get a feel for the data.
Cc1cc(C(=O)NC2CCCCC2)n(-c2ccc(OC3CCN(C4CCCCC4)CC3)cc2)n1; < 0.01 µM
FC(F)(F)c1cc(/C=C/c2ccccc2)n(-c2ccc(OCCCN3CCCC3)cc2)n1; < 0.1 µM

Go through the items and report each one's Ki.
1. Cc1cc(C(=O)NC2CCCCC2)n(-c2ccc(OC3CCN(C4CCCC4)CC3)cc2)n1
2. Cc1cc(-c2ccccc2)nn1-c1ccc(OCCCN2CCCC2)cc1
3. Cc1nn(-c2ccc(OCCCN3CCCC3)cc2)c2c1CCc1ccccc1-2
4. Cc1cc(C(=O)NC2CCCCC2)n(-c2ccc(OCCCN3CCOCC3)cc2)n1
5. Cc1nn(-c2ccc(OCCCN3CCCC3)cc2)c2c1CCC2
6. CCCCc1c(C)nn(-c2ccc(OCCCN3CCCC3)cc2)c1C
7. Cc1cc(C(=O)NC2CCCCC2)n(-c2ccc(OCCCN3CCCC3)cc2)n1

1. < 0.01 µM
2. < 0.01 µM
3. < 0.01 µM
4. < 0.01 µM
5. < 0.01 µM
6. < 0.01 µM
7. < 0.001 µM
